target: UniProt P10276; assay: RAR α Kd; assay type: binding; conditions: Table 3
pKd: −log10 of the molar value.
measuredAttribute: pKd

>  <molecule>
CN(C1CC1)C1CCC(C)(C)c2cc(C#Cc3ccc(C(C)(C)C(=O)O)cc3)ccc21 (centres unmarked)

>  <targetOrTestSystem>
UniProt P10276

>  <measuredAttribute>
pKd

>  <assayValue>
< 5.00

$$$$

Consider the record given below.
State recorded pKd with UniProt P10276, entry CN(Cc1cccc(C#Cc2ccc(/C=C/C(=O)O)cc2)c1)C1CC1 , no comment.
< 5.00

----------
biological target: RAR α (Homo sapiens); experiment: RAR α Kd; type: binding; details: last item of cell EC50/(EFFICACY)/Kd
Sequence (P10276 whole entry): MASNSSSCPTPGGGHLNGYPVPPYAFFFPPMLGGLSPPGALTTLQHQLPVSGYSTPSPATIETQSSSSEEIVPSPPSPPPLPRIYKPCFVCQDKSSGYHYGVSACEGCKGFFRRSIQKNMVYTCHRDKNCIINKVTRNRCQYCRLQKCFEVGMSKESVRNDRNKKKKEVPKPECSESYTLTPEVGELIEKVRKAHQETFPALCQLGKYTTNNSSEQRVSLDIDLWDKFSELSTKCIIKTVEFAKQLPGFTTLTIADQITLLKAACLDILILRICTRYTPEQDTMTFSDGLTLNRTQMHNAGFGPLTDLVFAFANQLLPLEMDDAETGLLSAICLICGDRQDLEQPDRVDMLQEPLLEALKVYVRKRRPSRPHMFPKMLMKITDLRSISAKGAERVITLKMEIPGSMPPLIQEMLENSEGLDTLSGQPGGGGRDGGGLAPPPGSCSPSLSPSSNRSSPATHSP
Measured pKd, listed per entry.
Recall that pKd is obtained by taking minus log10 of the concentration measured in molar.

>  <molecule>
CC(C(=O)O)c1ccc(C#Cc2cc(C3CC3)c3c(c2)C(C)(C)CCC3N(C)C2CC2)cc1 (stereo not shown)

>  <targetOrTestSystem>
RAR α (Homo sapiens)

>  <measuredAttribute>
pKd

>  <assayValue>
5.28

$$$$

Consider the record given below.
State recorded pKd with RAR α (Homo sapiens), entry CCc1cc(C#Cc2ccc(C(C)(C)C(=O)O)cc2)cc2c1C(N(C)C1CC1)CCC2(C)C (stereo not shown) , no comment.
5.74

----------
target: CYP26B (P450RAI-2) (Homo sapiens); construct: expressed in transfected cells; host or cells: HeLa; test: Cell-based inhibition of RA metabolism in CYP26B stably transfected HeLa cells; conditions: stably transfected HeLa cells, [3H]-RA, 3 hours at 37° C.; read-out: P450RAI-2 Whole cell IC50
Sequence (Q9NR63 whole entry): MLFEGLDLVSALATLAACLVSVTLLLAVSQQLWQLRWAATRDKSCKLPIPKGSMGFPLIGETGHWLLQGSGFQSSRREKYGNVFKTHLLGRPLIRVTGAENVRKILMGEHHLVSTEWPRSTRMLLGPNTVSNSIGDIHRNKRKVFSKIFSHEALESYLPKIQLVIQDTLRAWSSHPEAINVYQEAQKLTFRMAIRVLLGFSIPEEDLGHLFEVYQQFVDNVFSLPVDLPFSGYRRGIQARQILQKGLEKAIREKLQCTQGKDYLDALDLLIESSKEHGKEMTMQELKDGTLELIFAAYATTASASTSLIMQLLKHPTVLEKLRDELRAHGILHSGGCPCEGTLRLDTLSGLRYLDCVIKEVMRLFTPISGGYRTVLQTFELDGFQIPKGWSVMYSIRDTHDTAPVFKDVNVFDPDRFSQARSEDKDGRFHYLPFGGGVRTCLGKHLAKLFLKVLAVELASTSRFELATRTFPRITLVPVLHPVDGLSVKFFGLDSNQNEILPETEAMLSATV
measuredAttribute: IC50 (µM)
A number alone suffices; assume µM.

>  <compound>
C#Cc1cc(C#Cc2ccc(CC(=O)OCOC(C)=O)c(F)c2)cc(C(=O)OC(C)C)c1 [Compound 62]

>  <resultUnit>
µM

>  <IC50>
6.1

$$$$

Consider the record given below.
Give recorded IC50. C=Cc1cc(C#Cc2ccc(CC(=O)O)cc2)cc2c1C(N(C)C1CC1)CCC2(C)C (stereo not shown) [Compound 23]
0.5

----------
molecular target: RAR β (Homo sapiens, UniProt P10826); assay: RAR β Kd; assay type: binding; details: last item of cell EC50/(EFFICACY)/Kd
Sequence (P10826 whole entry): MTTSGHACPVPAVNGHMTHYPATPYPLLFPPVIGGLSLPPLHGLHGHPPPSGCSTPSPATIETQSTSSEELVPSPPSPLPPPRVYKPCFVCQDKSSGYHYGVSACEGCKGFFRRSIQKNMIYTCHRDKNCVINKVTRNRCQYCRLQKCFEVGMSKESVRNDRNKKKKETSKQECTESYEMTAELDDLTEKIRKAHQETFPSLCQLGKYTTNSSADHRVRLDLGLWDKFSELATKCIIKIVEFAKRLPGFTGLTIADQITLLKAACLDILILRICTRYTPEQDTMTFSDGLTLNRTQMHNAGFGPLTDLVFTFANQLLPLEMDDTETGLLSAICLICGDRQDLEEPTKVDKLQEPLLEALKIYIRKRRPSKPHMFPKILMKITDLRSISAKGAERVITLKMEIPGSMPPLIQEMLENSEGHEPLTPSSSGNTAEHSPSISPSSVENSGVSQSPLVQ
Measured Kd, listed per entry.

Give recorded Kd. CC(C(=O)O)c1ccc(C#Cc2cc(C3CC3)c3c(c2)C(C)(C)CCC3N(C)C2CC2)cc1 (stereo not shown) [Compound 49]
> 10 µM

----------
Measured pIC50, listed per entry.
biological target: CYP26A (P450RAI-1) (Homo sapiens); construct: expressed in transfected cells; host or cells: HeLa; test: Cell-based inhibition of RA metabolism in CYP26A stably transfected HeLa cells; details: stably transfected HeLa cells, [3H]-RA, 3 hours at 37° C.; read-out: P450RAI-1 Whole cell IC50
Recall that pIC50 is obtained by taking minus log10 of the concentration measured in molar.

Worked cases, pIC50 given:
>  <compound>
CC(C(=O)O)c1ccc(C#Cc2cc(O)c3c(c2)C(C)(C)CC(C)(C)O3)cc1 (centres unmarked)

>  <pIC50>
7.15

$$$$
>  <compound>
CCOC(=O)c1cc(C#Cc2ccc(CC(=O)O)cc2)cc2c1C(N(C)C1CC1)CCC2(C)C (centres unmarked)

>  <pIC50>
7.46

$$$$
>  <compound>
CC(C)c1cc(C#Cc2cccc(/C=C/C(=O)O)c2)cc2c1OC(C)(C)CC2(C)C

>  <pIC50>
6.22

$$$$
>  <compound>
CC(C)Oc1cc(C#Cc2ccc(CC(=O)O)cc2)cc2c1C(N(C)C1CC1)CCC2(C)C (centres unmarked)

>  <pIC50>
7.80

$$$$

State recorded pIC50 with CYP26A (P450RAI-1) (Homo sapiens), entry COc1cc(C#CC2=CCC(/C=C(\C)C(=O)O)C=C2)cc2c1C(N(C)C1CC1)CCC2(C)C (centres unmarked) , no comment.
6.74

----------
Measured IC50, listed per entry.
target: CYP26A (P450RAI-1) (Homo sapiens, UniProt O43174); construct: expressed in transfected cells; host or cells: HeLa; experiment: Cell-based inhibition of RA metabolism in CYP26A stably transfected HeLa cells; settings: stably transfected HeLa cells, [3H]-RA, 3 hours at 37° C.; read-out: P450RAI-1 Whole cell IC50
Sequence (O43174 whole entry): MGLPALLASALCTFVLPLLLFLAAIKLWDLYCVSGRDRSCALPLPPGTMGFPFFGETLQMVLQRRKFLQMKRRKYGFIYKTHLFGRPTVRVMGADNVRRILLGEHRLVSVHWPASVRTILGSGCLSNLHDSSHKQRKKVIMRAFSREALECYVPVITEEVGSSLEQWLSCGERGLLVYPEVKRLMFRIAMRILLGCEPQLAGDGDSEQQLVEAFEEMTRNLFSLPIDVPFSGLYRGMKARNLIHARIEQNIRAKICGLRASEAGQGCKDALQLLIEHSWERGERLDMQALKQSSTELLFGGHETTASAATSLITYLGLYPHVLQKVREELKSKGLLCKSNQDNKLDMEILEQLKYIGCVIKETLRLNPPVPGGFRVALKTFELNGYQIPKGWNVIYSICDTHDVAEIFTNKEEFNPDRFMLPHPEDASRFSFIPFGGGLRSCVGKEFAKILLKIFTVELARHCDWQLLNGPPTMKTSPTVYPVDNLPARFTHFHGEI
A number alone suffices; assume µM.

Worked cases, IC50 given:
>  <compound>
CCOC(=O)C1=C(C)CC(C)(C)c2cc(C#Cc3ccc(CC(=O)O)cc3)ccc21 [Compound 58]

>  <IC50 [µM]>
3.5

$$$$
>  <compound>
COc1cc(C#Cc2ccc(C(C)(C)C(=O)O)cc2)cc2c1C(N(C)C1CC1)CCC2(C)C (centres unmarked) [Compound 28]

>  <IC50 [µM]>
0.25

$$$$
>  <compound>
CC(C(=O)O)c1ccc(C#Cc2ccc3c(c2)C(C)(C)CCC3N(C)C2CC2)cc1 (centres unmarked) [Compound 51]

>  <IC50 [µM]>
0.2

$$$$
>  <compound>
CC(C)OC(=O)c1ccc(C#Cc2ccc(CC(=O)O)cc2)cc1CN(C)C1CC1 [Compound 38]

>  <IC50 [µM]>
4

$$$$

Give recorded IC50. COc1cc(C#Cc2ccc(CC(=O)O)cc2)cc2c1C(N(C)C1CC1)CCC2(C)C (centres unmarked) [Compound 25]
0.1

----------
target: RAR γ (Homo sapiens, UniProt P13631); assay: RAR γ EC50/(efficacy); conditions: first item of cell EC50/(EFFICACY)/Kd
Sequence (P13631 whole entry): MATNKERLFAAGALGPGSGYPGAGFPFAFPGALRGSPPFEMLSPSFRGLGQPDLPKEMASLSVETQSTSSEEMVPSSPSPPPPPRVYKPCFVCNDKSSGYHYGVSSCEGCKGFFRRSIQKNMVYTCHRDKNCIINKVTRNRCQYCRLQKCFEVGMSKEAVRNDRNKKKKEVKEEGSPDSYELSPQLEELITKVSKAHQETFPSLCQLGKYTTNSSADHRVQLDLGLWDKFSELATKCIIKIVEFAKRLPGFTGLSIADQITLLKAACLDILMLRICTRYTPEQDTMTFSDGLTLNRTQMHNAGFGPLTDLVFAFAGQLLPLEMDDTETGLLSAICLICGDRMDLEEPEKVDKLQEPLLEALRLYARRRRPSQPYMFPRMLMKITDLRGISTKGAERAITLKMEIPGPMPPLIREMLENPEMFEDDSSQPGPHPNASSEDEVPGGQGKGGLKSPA
Measured pEC50, listed per entry.
Recall that pEC50 is obtained by taking minus log10 of the concentration measured in molar.

Worked cases, pEC50 given:
>  <compoundSmiles>
CC(C)(C)c1cccc(C#Cc2ccc(/C=C/C(=O)O)cc2)c1

>  <pEC50>
6.90

$$$$
>  <compoundSmiles>
C#Cc1c(C)c(C#Cc2ccc(CC(=O)O)cc2)cc(C(C)(C)C)c1OC(C)C

>  <pEC50>
7.51

$$$$
>  <compoundSmiles>
C#CCc1c(C)c(C#Cc2ccc(CC(=O)O)cc2)cc(C(C)(C)C)c1OC(C)C

>  <pEC50>
6.90

$$$$

Consider the record given below.
Give recorded pEC50. C=Cc1c(C)c(C#Cc2ccc(CC(=O)O)cc2)cc(C(C)(C)C)c1OC(C)C
8.15

----------
molecular target: UniProt:P10826; experiment: RAR β EC50/(efficacy); format: cell-based; details: value in brackets of cell EC50/(EFFICACY)/Kd
So basically, if RAR β (EFFICACY) comes in under 70 it's rule met, and if it's 70 or more it's rule not met.

Reference set, count: 2
>  <molecule>
C=Cc1c(C)c(C#Cc2ccc(CC(=O)O)cc2)cc(C(C)(C)C)c1OC(C)C

>  <labelClass>
rule not met

$$$$
>  <molecule>
CC(C)(C)c1cccc(C#Cc2ccc(/C=C/C(=O)O)cc2)c1

>  <labelClass>
rule not met

$$$$

A record lists CN(C1CC1)C1CCC(C)(C)c2cc(C#Cc3ccc(/C=C/C(=O)O)cc3)cc(C3CC3)c21 (centres unmarked) . Is its RAR β (EFFICACY) below 70?
rule met

A record lists CC1(C)CC2(CC2)Oc2c(C3CC3)cc(C#Cc3ccc(/C=C(\Cl)C(=O)O)cc3)cc21 . Is its RAR β (EFFICACY) below 70?
rule met

A record lists CCOC(=O)C1=CCC(C)(C)c2cc(C#Cc3ccc(CC(=O)O)c(F)c3)ccc21 . Is its RAR β (EFFICACY) below 70?
rule met

A record lists CN(C1CC1)C1CCC(C)(C)c2cc(C#Cc3ccc(C(C)(C)C(=O)O)cc3)ccc21 (centres unmarked) . Is its RAR β (EFFICACY) below 70?
rule met

A record lists CC1(C)CC2(CC2)Oc2c(C3CC3)cc(NC(=O)Nc3ccc(C(=O)O)cc3)cc21 . Is its RAR β (EFFICACY) below 70?
rule met

----------
molecular target: CYP26B (P450RAI-2) (Homo sapiens); construct: expressed in transfected cells; host or cells: HeLa; experiment: Cell-based inhibition of RA metabolism in CYP26B stably transfected HeLa cells; conditions: stably transfected HeLa cells, [3H]-RA, 3 hours at 37° C.; read-out: P450RAI-2 Whole cell IC50
Measured IC50, listed per entry.

>  <compound>
CN(Cc1cc(C#Cc2ccc(C(C)(C)C(=O)O)cc2)cc2c1OC(C)(C)CC2(C)C)C1CC1

>  <targetOrTestSystem>
CYP26B (P450RAI-2) (Homo sapiens)

>  <assayValue>
> 10 µM

$$$$
>  <compound>
CC(C(=O)O)c1ccc(C#Cc2ccc3c(c2)C(C)(C)CCC3N(C)C2CC2)cc1 (stereo not shown)

>  <targetOrTestSystem>
CYP26B (P450RAI-2) (Homo sapiens)

>  <assayValue>
> 10 µM

$$$$
>  <compound>
COc1cc(C#Cc2ccc(CC(=O)O)c(F)c2)cc2c1C(N(C)C1CC1)CCC2(C)C (stereo not shown)

>  <targetOrTestSystem>
CYP26B (P450RAI-2) (Homo sapiens)

>  <assayValue>
5 µM

$$$$

Give recorded IC50. C#Cc1cc(C#Cc2ccc(CC(=O)O)c(F)c2)cc(C(=O)OC(C)C)c1
8.1 µM

// data source = patent US7468391B2
